# MEASUREMENT_TARGET: endothelin receptors
# PROTOCOL_DESCRIPTION: Inhibition of endothelin binding to human placenta membranes
# CONDITIONS_USED: 125I-endothelin 20 pM, 20° C. for 2 hours or 4° C. for 24 hours, read-out: IC50 (concentration required to inhibit 50% of the specific binding of 125I-endothelin)
# Procedure: I: Inhibition of endothelin binding to human placenta membranes (see. Life Sci 44:1429 (1989)) Human placenta is homogenized in 5 mM Tris buffer, pH 7.4, which contains 1 mM MgCl2 and 250 mM sucrose. The homogenizate is centrifuged at 4° C. and 3000 g for 15 minutes, the supernatant containing the plasma membrane fraction is centrifuged with 72000 g for 30 minutes and the precipitate is washed with 75 mM Tris buffer, pH 7.4, which contains 25 mM MgCl2. […]
pIC50: −log10 of the molar value.
Entry flag: satisfied if pIC50 reaches 7; not satisfied if it does not.

COc1cccc(Oc2c(NS(=O)(=O)c3ccc(C(C)(C)C)cc3)ncnc2OCCO)c1 [Example 6]	not satisfied
COc1ccccc1Oc1c(NS(=O)(=O)c2ccc(C(C)C)cc2)nc(C(F)(F)F)nc1OCCO [Example 25]	satisfied

* * *

# MEASUREMENT_TARGET: endothelin receptors
# PROTOCOL_DESCRIPTION: Inhibition of endothelin binding to human placenta membranes
# CONDITIONS_USED: 125I-endothelin 20 pM, 20° C. for 2 hours or 4° C. for 24 hours, read-out: IC50 (concentration required to inhibit 50% of the specific binding of 125I-endothelin)
pIC50: −log10 of the molar value.
MEASUREMENT_LABEL: pIC50

COc1ccccc1Oc1c(NS(=O)(=O)c2ccc(C(C)C)cc2)nc(C)nc1OCCO	7.14
COc1ccccc1Oc1c(NS(=O)(=O)c2ccc(C(C)(C)C)cc2)ncnc1OCCO	6.94
COc1ccccc1Oc1c(NS(=O)(=O)c2ccc(C(C)C)cc2)ncnc1OCCO	7.00
CC(C)(C)c1ccc(S(=O)(=O)Nc2ncnc(OCCO)c2Oc2ccc3c(c2)OCO3)cc1	7.00
COc1ccccc1Oc1c(NS(=O)(=O)c2ccc(C(C)C)cc2)nc(-c2ccccc2)nc1OCCO	6.90
